System: Lewis lung carcinoma i.m., BDF1 mice, T/C %
Test: NCI In Vivo Anticancer Drug Screen. Data for tumor model Lewis Lung Carcinoma (intramuscular) in B6D2F1 (BDF1) mice
Details: endpoint: median survival time; dose: 10.0 mg/kg/injection; schedule: Q01DX011 (ip); vehicle: saline
Inconclusive results are not listed. The calls were made as follows: active = survival T/C of 150% or more; inactive = T/C below 125% in these data.
Classes to choose from: active, inactive

Exercise: Recorded test outcome, item O=C1C=C(N2CC2)c2ccccc2C1=O
Key: inactive

Exercise: For this compound, state the assay outcome: Cc1c2c(ccc3ccccc32)c[n+]2ccccc12
Key: inactive

Exercise: Hello, I am checking results. What call was entered for Cc1nc(N)sc1CCCl ?
Key: inactive

Exercise: What is the recorded call for this compound in the test? Cc1[nH]c(=O)[nH]c(=O)c1N(CCF)CCCl
Key: inactive

Exercise: What was the test verdict on CC1(C)N=C(N)N=C(N)N1c1ccc(CCCCc2ccc(Cl)cc2Cl)cc1 ?
Key: inactive

Exercise: Given Cc1c(N)nc([C@H](CC(N)=O)NC[C@H](N)C(N)=O)nc1C(=O)N[C@H](C(=O)N[C@H](C)[C@@H](O)[C@H](C)C(=O)N[C@H](C(=O)NCCc1nc(-c2nc(C(=O)NCCC[S+](C)C)cs2)cs1)[C@@H](C)O)C(OC1OC(CO)C(O)C(O)C1OC1OC(CO)C(O)C(OC(N)=O)C1O)c1cnc[nH]1 (some centres not stated) , state the outcome it received in this test.
Key: active

Exercise: Please state the recorded outcome for this compound: CC(=O)OC(C1CO1)C(OC(C)=O)C1CO1 (configuration not stated)
Key: inactive
